Entries and their IC50 values follow.
Biological target: PDE4D3 (Homo sapiens, UniProt Q08499)
Sequence (Q08499 1-673 isoform Q08499-2): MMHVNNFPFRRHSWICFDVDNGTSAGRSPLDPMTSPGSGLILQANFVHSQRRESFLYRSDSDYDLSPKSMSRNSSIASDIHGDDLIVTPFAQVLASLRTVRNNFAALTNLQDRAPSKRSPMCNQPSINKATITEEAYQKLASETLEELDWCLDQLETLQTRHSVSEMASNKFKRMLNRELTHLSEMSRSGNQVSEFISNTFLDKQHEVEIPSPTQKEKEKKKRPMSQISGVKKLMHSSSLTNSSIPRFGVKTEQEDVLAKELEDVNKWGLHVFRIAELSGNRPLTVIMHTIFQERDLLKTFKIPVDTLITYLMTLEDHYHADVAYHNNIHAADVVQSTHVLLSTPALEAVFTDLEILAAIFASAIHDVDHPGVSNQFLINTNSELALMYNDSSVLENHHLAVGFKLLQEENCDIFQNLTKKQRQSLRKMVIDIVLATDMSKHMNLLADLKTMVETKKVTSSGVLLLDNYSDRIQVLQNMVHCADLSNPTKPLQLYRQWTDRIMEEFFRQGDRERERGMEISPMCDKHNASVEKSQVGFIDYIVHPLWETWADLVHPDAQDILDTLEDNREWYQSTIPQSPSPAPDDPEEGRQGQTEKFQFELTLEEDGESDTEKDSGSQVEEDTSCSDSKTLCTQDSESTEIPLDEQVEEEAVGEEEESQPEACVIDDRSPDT
Test: In vitro PDE selectivity assay (SPA), PDE4D3
Type: biochemical
Settings: hPDE4D3; read-out: PDE 4D3 (expressed as pIC50) (converted)

Answered examples (4):
>>> obs_value("COC(C)(C)CCc1ccc(-c2c(C)nc3c(N4CCOCC4)ccnn23)cn1")
"> 10 µM"
>>> obs_value("CO[C@@H](C)Cn1cc(-c2c(C)nc3c(N4CCOCC4)ccnn23)cn1")
"> 10 µM"
>>> obs_value("Cc1nc2c(N3CCOCC3)ccnn2c1-c1ccnc(N2CCOCC2)c1")
"> 10 µM"
>>> obs_value("Cc1nc2c(N3CCOCC3)ccnn2c1-c1ccc(C(C)C)nc1")
"> 10 µM"

Read the next record carefully.
get_value(item= Cc1nc2c(N3CCOCC3)ccnn2c1-c1ccc(N2CCNCC2)nc1 , readout=IC50) returns > 10 µM

* * *

Biological target: Rat recombinant PDE10A (rPDE10A2) (Rattus norvegicus)
Construct: inferred from the Ni metal chelate purification; made in house; host or cells: Sf9 insect cells (baculovirus)
Sequence (Q9QYJ6 whole entry): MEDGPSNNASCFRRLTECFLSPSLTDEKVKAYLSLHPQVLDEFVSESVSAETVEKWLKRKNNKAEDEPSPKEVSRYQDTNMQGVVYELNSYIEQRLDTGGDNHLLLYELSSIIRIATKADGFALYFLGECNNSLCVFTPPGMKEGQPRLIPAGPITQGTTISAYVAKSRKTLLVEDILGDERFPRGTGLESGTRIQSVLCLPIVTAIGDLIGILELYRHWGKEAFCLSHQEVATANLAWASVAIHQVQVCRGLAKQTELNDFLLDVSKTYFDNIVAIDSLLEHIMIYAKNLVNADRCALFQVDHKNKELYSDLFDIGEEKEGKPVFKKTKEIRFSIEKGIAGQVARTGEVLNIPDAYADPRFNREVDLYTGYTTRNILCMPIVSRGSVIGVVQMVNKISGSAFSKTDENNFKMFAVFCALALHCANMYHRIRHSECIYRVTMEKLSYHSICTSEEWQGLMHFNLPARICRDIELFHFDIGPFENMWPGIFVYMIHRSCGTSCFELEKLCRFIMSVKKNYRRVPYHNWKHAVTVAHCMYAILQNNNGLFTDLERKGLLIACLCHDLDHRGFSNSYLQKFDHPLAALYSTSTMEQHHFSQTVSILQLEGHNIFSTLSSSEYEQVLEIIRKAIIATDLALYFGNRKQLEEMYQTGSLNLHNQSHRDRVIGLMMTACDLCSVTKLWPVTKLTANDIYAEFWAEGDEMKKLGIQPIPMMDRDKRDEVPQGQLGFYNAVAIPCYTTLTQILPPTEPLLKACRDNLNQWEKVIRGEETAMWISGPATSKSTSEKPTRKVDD
Experiment: In vitro assay PDE10A (SPA, 3H-cAMP)
Type: biochemical
Details: Table 4 in vitro selectivity; read-out: PDE 10A2 (expressed as pIC50) (converted)
Protocol: Rat recombinant PDE10A (rPDE10A2) was expressed in Sf9 cells using a recombinant rPDE10A baculovirus construct. Cells were harvested after 48 h of infection and the rPDE10A protein was purified by metal chelate chromatography on Ni-sepharose 6FF. […] After sedimentation of the beads during 30 minutes the radioactivity was measured in a Perkin Elmer Topcount scintillation counter and results were expressed as cpm. […]
Binarize IC50 at 100 nM; below is YES, at or above is NO.

>>> qualitative_label("Cc1nc2c(N3CCOCC3)ccnn2c1-c1ccc(N2CCOCC2)nc1 [compound 19]")
"NO"
>>> qualitative_label("COC(C)(C)Cc1ccc(-c2c(C)nc3c(-c4ccncc4)cc(C)nn23)cn1 [compound 48]")
"NO"
>>> qualitative_label("Cc1cc(N2CCOCC2)c2nc(C3CC3)c(-c3ccc(N4CCOCC4)nc3)n2n1 [compound 75]")
"NO"
>>> qualitative_label("CC(C)(O)Cc1ccc(-c2c(C3CC3)nc3c(N4CCOCC4)ccnn23)cn1 [compound 54]")
"YES"

Turning now to a further compound:
INPUT: Record COC(C)(C)Cc1ccc(-c2c(C)nc3c(N4CCOCC4)ccnn23)cn1 [compound 3] : is its IC50 strictly below 100 nM?
OUTPUT: YES

* * *

Target: other members of the PDE family (Homo sapiens)
Assay: In vitro PDE selectivity assay (SPA), other members of the PDE family (protocols in Table A)
Type: biochemical
Details: hPDE2A; read-out: PDE 2A (expressed as pIC50) (converted)
Entries and their measured IC50 follow.

>>> obs_value("Cc1nc2c(N3CCOCC3)ccnn2c1-c1cnn(C2CCOCC2)c1 [compound 117]")
"> 10 µM"
>>> obs_value("COCCn1cc(-c2c(C)nc3c(-c4ccncc4)cc(C(F)(F)F)nn23)cn1 [compound 129]")
"> 10 µM"

Moving on to another molecule below.
Measured IC50 of COCCn1cc(-c2c(C)nc3c(N4CCOCC4)ccnn23)cn1 [compound 36] : > 10 µM

* * *

Below: a set of entries, each annotated with reported IC50.
Molecular target: PDE4D3 (Homo sapiens)
Experiment: In vitro PDE selectivity assay (SPA), PDE4D3
Type: biochemical
Conditions: hPDE4D3; read-out: PDE 4D3 (expressed as pIC50) (converted)

>>> obs_value("Cc1nc2c(N3CCOCC3)ccnn2c1-c1ccc(C2CC2)nc1")
"> 10 µM"

Measured IC50 of Cc1nc2c(N3CCOCC3)ccnn2c1-c1cnn(C2CCOCC2)c1 : > 10 µM

Entry COC(C)(C)COc1ccc(-c2c(C)nc3c(N4CCOCC4)ccnn23)cn1 — recorded IC50 = > 10 µM

* * *

Measured IC50 by item
Biological target: Rat recombinant PDE10A (rPDE10A2) (Rattus norvegicus)
Construct: inferred from the Ni metal chelate purification; made in house; host or cells: Sf9 insect cells (baculovirus)
Test: In vitro assay PDE10A (SPA, 3H-cAMP)
Type: biochemical
Settings: pIC50 corresponds to the −log IC50 expressed in mol/L; read-out: PDE10A2 pIC50 (converted)
Give the quantity in nM, number only.

>>> obs_value("COCCOc1cncc(-c2c(C)nc3c(-c4ccncc4)ccnn23)c1 [compound 149]")
151
>>> obs_value("COC(C)(C)Cn1cc(-c2c(C3CC3)nc3c(N4CCOCC4)ccnn23)cn1 [compound 38]")
28.8

Measured IC50, COCCc1ccc(-c2cnc3c(N4CCOCC4)ccnn23)cn1 [compound 11] : 195

* * *

// values below are reported IC50
Target: other members of the PDE family (Homo sapiens, UniProt Q9HCR9)
Sequence (Q9HCR9 whole entry): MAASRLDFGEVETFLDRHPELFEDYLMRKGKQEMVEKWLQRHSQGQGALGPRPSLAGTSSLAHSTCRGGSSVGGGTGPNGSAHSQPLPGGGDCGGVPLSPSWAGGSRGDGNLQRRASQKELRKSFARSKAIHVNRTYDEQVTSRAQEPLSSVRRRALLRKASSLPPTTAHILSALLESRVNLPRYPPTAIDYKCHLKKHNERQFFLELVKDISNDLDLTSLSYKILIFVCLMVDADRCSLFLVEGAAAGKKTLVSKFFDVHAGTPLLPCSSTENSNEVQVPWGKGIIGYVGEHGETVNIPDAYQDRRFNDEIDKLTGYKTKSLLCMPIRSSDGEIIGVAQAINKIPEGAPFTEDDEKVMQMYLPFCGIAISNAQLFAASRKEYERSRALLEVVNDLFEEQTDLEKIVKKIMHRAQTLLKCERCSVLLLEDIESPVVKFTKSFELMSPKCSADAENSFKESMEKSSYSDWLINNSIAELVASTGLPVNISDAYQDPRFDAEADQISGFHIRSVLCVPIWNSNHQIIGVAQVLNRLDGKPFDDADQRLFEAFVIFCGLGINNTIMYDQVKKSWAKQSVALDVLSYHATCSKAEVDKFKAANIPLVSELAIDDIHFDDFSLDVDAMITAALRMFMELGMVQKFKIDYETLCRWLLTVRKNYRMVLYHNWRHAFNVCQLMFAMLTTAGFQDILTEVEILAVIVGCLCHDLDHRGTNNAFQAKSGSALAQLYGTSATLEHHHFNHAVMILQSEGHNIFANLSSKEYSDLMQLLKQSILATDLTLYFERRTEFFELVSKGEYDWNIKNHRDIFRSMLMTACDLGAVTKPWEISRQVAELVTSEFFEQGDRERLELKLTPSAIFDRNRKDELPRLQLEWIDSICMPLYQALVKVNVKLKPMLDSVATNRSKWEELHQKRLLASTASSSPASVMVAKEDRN
Test: In vitro PDE selectivity assay (SPA), other members of the PDE family (protocols in Table A)
Type: biochemical
Conditions: hPDE11A4; read-out: PDE 11A4 (expressed as pIC50) (converted)

Some solved entries appear below for comparison.
>>> obs_value("COC(C)(C)Cc1ccc(-c2c(C)nc3c(N4CCOCC4)ccnn23)cn1")
"> 10 µM"
>>> obs_value("CO[C@@H](C)Cn1cc(-c2c(C)nc3c(N4CCOCC4)ccnn23)cn1")
"> 10 µM"

Per the records, this molecule ( Cc1nc2c(N3CCOCC3)cc(Cl)nn2c1-c1cnn(CC(F)(F)F)c1 ) has IC50 equal to > 10 µM

Lab book: IC50 of COCCc1ccc(-c2c(C)nc3c(N4CCOCC4)ccnn23)cn1 noted as 74.1 µM

Query COC(C)(C)CCc1ccc(-c2c(C)nc3c(N4CCOCC4)ccnn23)cn1 yields IC50 of > 10 µM

For reference, reported IC50 for COC(C)(C)Cn1cc(-c2c(C)nc3c(N4CCOCC4)ccnn23)cn1 stands at 39.8 µM

Kindly note the recorded IC50 for COC(C)(C)COc1ccc(-c2c(C)nc3c(N4CCOCC4)ccnn23)cn1 , which is > 10 µM

Form: molecule = c1cc(-c2ccnn3c(-c4ccc(N5CCOCC5)nc4)cnc23)ccn1 ; IC50 = > 10 µM

Briefly, IC50 measured for Cc1nc2c(N3CCOCC3)ccnn2c1-c1ccc(C2CC2)nc1 : > 10 µM

The recorded IC50 for Cc1nc2c(N3CCOCC3)ccnn2c1-c1cnn(CC2CC2(F)F)c1 (centres unmarked) is > 10 µM

Looking up Cc1nc2c(-c3ccncc3)ccnn2c1-c1cnn(CC(F)(F)F)c1 , I found its IC50 recorded as 5.89 µM

* * *

Target: Rat recombinant PDE10A (rPDE10A2) (Rattus norvegicus)
Construct: inferred from the Ni metal chelate purification; made in house; host or cells: Sf9 insect cells (baculovirus)
Test: In vitro assay PDE10A (SPA, 3H-cAMP)
Format: biochemical
Details: pIC50 corresponds to the −log IC50 expressed in mol/L; read-out: PDE10A2 pIC50 (converted)
Listed below: log10 IC50 values for each entry.
# values: log10(IC50), units nM

Consider the reported log10 IC50 for these compounds:
>>> obs_value("c1cc(N2CCOCC2)c2ncc(-c3ccc(N4CCOCC4)nc3)n2n1 [compound 144]")
2.51
>>> obs_value("COCCc1ccc(-c2c(C3CC3)nc3c(N4CCOCC4)cc(C(F)(F)F)nn23)cn1 [compound 85]")
2.82
>>> obs_value("COC(C)(C)Cc1ccc(-c2cnc3c(-c4ccncc4)ccnn23)cn1 [compound 60]")
2.28

Per the records, this compound ( Cc1cc(-c2ccncc2)c2nc(C)c(-c3ccc(N4CCNCC4)nc3)n2n1 [compound 96] ) has log10 IC50 equal to 2.27

// log10 IC50 lookup, compound = CCc1ccc(-c2c(C)nc3c(-c4ccncc4)cc(C)nn23)cn1 [compound 88] , result: 2.06

Lookup result for COCCc1ccc(-c2c(C3CC3)nc3c(-c4ccncc4)cc(C)nn23)cn1 [compound 56] ; measured log10 IC50: 1.71

Data point: COC(C)(C)Cc1ccc(-c2c(C)nc3c(-c4ccncc4)ccnn23)cn1 [compound 7] ; log10 IC50 = 1.41

* * *

Target: other members of the PDE family (Homo sapiens, UniProt Q9HCR9)
Test: In vitro PDE selectivity assay (SPA), other members of the PDE family (protocols in Table A)
Type: biochemical
Conditions: hPDE11A4; read-out: PDE 11A4 (expressed as pIC50) (converted)
// values below are reported IC50

>>> obs_value("COCCn1cc(-c2c(C)nc3c(-c4ccncc4)cc(Cl)nn23)cn1")
"3.8 µM"
>>> obs_value("COCCOc1ccc(-c2c(C)nc3c(-c4ccncc4)ccnn23)cn1")
"> 50.1 µM"

Measured IC50, COCCn1cc(-c2c(C)nc3c(N4CCOCC4)ccnn23)cn1 : > 10 µM
